tested system: T1, Ax1 protein, extracellular domain (human, UniProt P30530 26-451)
T1 construct: extracellular domain; also called Axl; Ark
T1 sequence (looked up): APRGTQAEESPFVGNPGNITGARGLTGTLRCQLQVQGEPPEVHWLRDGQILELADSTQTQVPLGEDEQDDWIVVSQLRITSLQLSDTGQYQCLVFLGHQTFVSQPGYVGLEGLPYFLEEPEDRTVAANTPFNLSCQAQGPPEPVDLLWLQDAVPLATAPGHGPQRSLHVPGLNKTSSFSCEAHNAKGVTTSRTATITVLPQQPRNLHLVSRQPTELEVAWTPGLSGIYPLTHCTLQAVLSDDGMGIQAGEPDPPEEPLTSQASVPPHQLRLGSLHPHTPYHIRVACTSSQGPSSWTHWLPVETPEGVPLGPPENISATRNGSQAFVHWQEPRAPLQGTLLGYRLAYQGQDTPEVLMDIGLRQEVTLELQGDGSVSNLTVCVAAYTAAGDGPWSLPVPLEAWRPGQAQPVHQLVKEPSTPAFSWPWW
measurement notes: ELISA, mutant diluted 1:3
Each entry below carries its reported Affinity ELISA CPE mutant ratio (1:3, pH 6.0/7.4).
// return a plain number; no unit text

[Q] Entry LC-W050F (antibody, V domains shown, CPE single point mutant) VH: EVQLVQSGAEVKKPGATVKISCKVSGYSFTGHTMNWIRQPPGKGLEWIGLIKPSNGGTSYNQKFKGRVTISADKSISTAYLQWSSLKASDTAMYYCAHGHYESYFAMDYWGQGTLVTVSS VL: DIQMTQSPSSLSASVGDRVTITCKASQDVSSAVAWYQQKPGQAPRLLIYFASTRHTGVPSRFSGSGSGTEFTLTISSLQPDDFATYYCQEHFSTPLTFGQGTKVEIK : reported Affinity ELISA CPE mutant ratio (1:3, pH 6.0/7.4) = ?
[A] 2.25

[Q] Entry LC-H091V (antibody, V domains shown, CPE single point mutant) VH: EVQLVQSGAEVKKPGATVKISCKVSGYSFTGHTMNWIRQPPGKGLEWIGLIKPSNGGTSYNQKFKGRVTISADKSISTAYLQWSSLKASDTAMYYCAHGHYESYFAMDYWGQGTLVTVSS VL: DIQMTQSPSSLSASVGDRVTITCKASQDVSSAVAWYQQKPGQAPRLLIYWASTRHTGVPSRFSGSGSGTEFTLTISSLQPDDFATYYCQEVFSTPLTFGQGTKVEIK : reported Affinity ELISA CPE mutant ratio (1:3, pH 6.0/7.4) = ?
[A] 4.13

More entries:
[Q] Entry HC-W110H (antibody, V domains shown) VH: EVQLVQSGAEVKKPGATVKISCKVSGYSFTGHTMNWIRQPPGKGLEWIGLIKPSNGGTSYNQKFKGRVTISADKSISTAYLQWSSLKASDTAMYYCAHGHYESYFAMDYHGQGTLVTVSS VL: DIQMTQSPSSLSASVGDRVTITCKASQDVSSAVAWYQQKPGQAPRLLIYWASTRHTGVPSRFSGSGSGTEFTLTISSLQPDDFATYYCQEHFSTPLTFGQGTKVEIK : reported Affinity ELISA CPE mutant ratio (1:3, pH 6.0/7.4) = ?
[A] 7.99
